Data provenance: the supplement of paper PMC9170038

Tested on: MS2 coat protein
Assay: apparent KD of MS2 coat protein; designed switch direction (-1 OFF switch, 1 ON switch): -1; higher = weaker reporter binding
Settings: Eterna round: R95; input ligand: microRNA oligo, concentration not stated
Given measured apparent KD of MS2 coat protein, output condition met if it is greater than or equal to 0.04 µM and condition not met if not.

{"sequence_entry": "GGUCAAGAACAGAUCCGCGCUGUCCUUGACCGCUCAUUUACAUGAGGAUCACCCAUGUUUUUUGCUUGUCUUGUUAC [Tixegeis] (puzzle: Sensor v3, turn-off variant 2)", "assigned_class": "condition met"}
{"sequence_entry": "CUUUCGUGAGGAUAUCAGUAGUAAAAUAAUAAAAUUACUACUGAGAAGGCACAUGAGGAUCACCCAUGUUCCUC [salish99_ex3_r3_099] (puzzle: Exclusion 4)", "assigned_class": "condition not met"}
{"sequence_entry": "UUUUAACAUGAGGAUCACCCAUGUGAGGAUAUCGAAAUUUAUAUUAAUAUUUAUUUUACGAGAAGGCACAUUUU [JMF 66] (puzzle: Exclusion 1)", "assigned_class": "condition met"}
{"sequence_entry": "AGCAUGCUAGGAUAUACGGGACAUUAGGGUUUGUCGUGUGGACAUGAGGAUCACCCAUGUAGAAGGAGCGUGCA [Mat - Exclusion 2 - Mod of Hyphema - D92] (puzzle: Exclusion 2)", "assigned_class": "condition met"}

---

Tested on: MS2 coat protein
Experiment: apparent KD of MS2 coat protein; designed switch direction (-1 OFF switch, 1 ON switch): -1; higher = weaker reporter binding
Details: Eterna round: R95; input ligand: FMN 200 uM
Please assign a class to every record based on measured apparent KD of MS2 coat protein, with ranges bucket A = under 20 nM, bucket B = from 20 nM up to 60 nM, bucket C = 60 nM and over

{"sequence_entry": "AGAUGGAAGCAGGAUAUGCUUGUAUAAUUGAAAGCAGAAGGGCUAACAUGAGGAUCACCCAUGUAAGAGGUGUA [JR_E6_Sub059] (puzzle: Exclusion 6)", "assigned_class": "bucket C"}
{"sequence_entry": "GGAAUACAUGAGGAUCACCCAUGUAAGGAUAUGCUGAAUAACACGGAAUUAACGUGCAGCAGAAGGUACAAAGG [Mat - Mod of my Eli Mod D43] (puzzle: Exclusion 1)", "assigned_class": "bucket C"}
{"sequence_entry": "CUGAGGUAGCGGUCCUAUGACAUGAGGAUCACCCAUGUGCCUUGCUACAAGCUUUUUGCUCGUCUUAUGAUUCUCGG [JL Atriat mod 9] (puzzle: Sensor v3, turn-off variant 1)", "assigned_class": "bucket B"}
{"sequence_entry": "GUAGCUUCGGCUACUACAAGCUUUUUGCUCGUCUUAUUAACAUGAGGAUCACCCAUGUUAAUGAGACCUCAUGUAUU [Sensor v3 - turn-off variant 2 - 6] (puzzle: Sensor v3, turn-off variant 2)", "assigned_class": "bucket A"}
{"sequence_entry": "UACUAAAAGGAGGAUAUCGUAUCGGAAACGAUACGAGAAGGCUUAACAUGAGGAUCACCCAUGUUCUUCAAUAU [Mat - Exclusion 6 - Eli Mod - D92] (puzzle: Exclusion 6)", "assigned_class": "bucket A"}
{"sequence_entry": "GAAAAGGUAGGAUAUACGAAAAAAAAGGGUAGAAAAAAAACACAUGAGGAUCACCCAUGUAGAAGGACCAUAAG [salish99_ex2_r3_091] (puzzle: Exclusion 2)", "assigned_class": "bucket C"}
{"sequence_entry": "AGUACUAACACGAGAGUGUUAGUACAAUAAGCUUGUGUUACAUGAGGAUCACCCAUGUCCUCAUAAGCUCGUCUUAU [Mat - Sensor v3 - Turn-off var 2 - D53] (puzzle: Sensor v3, turn-off variant 2)", "assigned_class": "bucket C"}
{"sequence_entry": "GGUUGACAUGAGGAUCACCCAUGUGAGGAUAUGCGAGAGAAAAAAGUGAGGAAGGAAUGCAGAAGGCGCUGUCG [salish99-ex1_r3_018] (puzzle: Exclusion 1)", "assigned_class": "bucket B"}
{"sequence_entry": "CAUUACUACAAGCUUGGGAACAUGAGGAUCACCCAUGUUCGUCUUAUUGAUCUAGGUACGCUGACGUACCUAGAUCU [JL-sv1-2.24 Brourd mod] (puzzle: Sensor v3, turn-off variant 1)", "assigned_class": "bucket A"}
{"sequence_entry": "AUAAAGAAUGUUAGGAUAUUGGUGAAUAGGCUGACUAAGAAGGAACAUGAGGAUCACCCAUGUAAAAUGGAAAA [Readima] (puzzle: Brourd's mod of Exclusion 4)", "assigned_class": "bucket C"}
{"sequence_entry": "ACGUGAUAUCUGUCGGUGGACAUGAGGAUCACCCAUGUGAGCUUUUUGCUCGUCUUACAACCCGGUGACAGACCUUC [Bebitier] (puzzle: Sensor v3, turn-off variant 1)", "assigned_class": "bucket B"}
{"sequence_entry": "AGUACUAACACGUGUGUGUUAGUACAAUAAGCUUGUGAAACAUGAGGAUCACCCAUGUCCUCAUAAGCUCGUCUUAU [salish99_TOv2_r3_074] (puzzle: Sensor v3, turn-off variant 2)", "assigned_class": "bucket A"}
{"sequence_entry": "CAUGGAUGUGAGCCGCAUUACAUGAGGAUCACCCAUGUCAACAAGCUUUUUGCUUAUCUUACGCGGCGGCAUCAAAA [Enisusti] (puzzle: Sensor v3, turn-off variant 1)", "assigned_class": "bucket A"}
{"sequence_entry": "AGUAGGUCUACCUUGGUGGAUCUGCAUAAAGCAAGUGAAACAUGAGGAUCACCCAUGUCCUCAUUUGCUCGUCUUAU [JL turnoff v2 99.20] (puzzle: Sensor v3, turn-off variant 2)", "assigned_class": "bucket A"}
{"sequence_entry": "AGUACUAUGCGAGCUGACUUGCGUAGUGCAGCAGGUGUUACAUGAGGAUCACCCAUGUCCUCAUUUGCUCGUCUUAU [Mat - Sensor v3 - Turn-off var 2 - D6] (puzzle: Sensor v3, turn-off variant 2)", "assigned_class": "bucket C"}
{"sequence_entry": "GUAAAGGUAGGAUAUACGAAGAAAAAGGGUAGAAUAAUAACACAUGAGGAUCACCCAUGUAGAAGGACCAAAGG [Mat - Exclusion 2 - Mod of my Tesla design - D8] (puzzle: Exclusion 2)", "assigned_class": "bucket B"}
{"sequence_entry": "UUUAAUUUUUUUUUUUUACAAGCUUUUUGCUCGUCUUAUACAUGAGGAUCACCCAUGUGGAUGGGAGGUAAAUUAUC [JMF 74] (puzzle: Sensor v3, turn-off variant 2)", "assigned_class": "bucket B"}
{"sequence_entry": "AGUAGUUGUUUCCGUUCUUACAUGAGGAUCACCCAUGUUUCUUGUCGUGCUCGCGUUGCUCGUCAGACUUCCUGUUG [salish99_TOv1_r3_063] (puzzle: Sensor v3, turn-off variant 1)", "assigned_class": "bucket C"}
{"sequence_entry": "AGAAGAAAAGAGAUUUGCUCGUCUUAUAAGUAUGAAGUAACAUGAGGAUCACCCAUGUAAGUCUAGUGAGAAGGAAG [JR_SV3TOV2_Sub001] (puzzle: Sensor v3, turn-off variant 2)", "assigned_class": "bucket B"}
{"sequence_entry": "AUUUAGAGAGGAUAUAUUAUGUGAAACAUGAGGAUCACCCAUGUAAUAUGAUGGAUGUAAAUAGAAGGCUCAUUUA [Mat - Exclusion 5 - JL mod - D23] (puzzle: Exclusion 5)", "assigned_class": "bucket B"}
